Taken from ChEMBL document CHEMBL1138356.

Test system: Human immunodeficiency virus
assay name: Antiviral activity against HIV 589.000033 by viral replication assay
Type: functional, organism-based
test settings: Human immunodeficiency virus 1
Give measured IC50 for each item. Keep answers brief.

CC1CN(C(=O)c2ccccc2)CCN1S(=O)(=O)c1c[nH]c2c(-n3ccnn3)nccc12 (racemic)    0.492 µM

# next molecule below
Query: Any idea what its IC50 is? The molecule is COc1ccnc2[nH]cc(C(=O)C(=O)N3CCN(C(=O)c4ccccc4)C[C@H]3C)c12
Result: 0.028 µM

---

Give measured IC50 for each item. Keep answers brief.
Tested on: Human immunodeficiency virus
assay name: Antiviral activity against HIV 584.000039 by viral replication assay
Format: functional, organism-based
test settings: Human immunodeficiency virus 1
Provide the measurement as a number trailed by its unit.

CC1CN(C(=O)c2ccccc2)CCN1S(=O)(=O)c1c[nH]c2c(-n3ccnn3)nccc12 (racemic)    1800 nM

# next compound below
Query: Any idea what its IC50 is? The compound is COc1ccnc2[nH]cc(C(=O)C(=O)N3CCN(C(=O)c4ccccc4)C[C@H]3C)c12
Result: 400 nM

---

assay name: Cytotoxicity against human U87 cells expressing CD4 and CXCR4
Format: cell-based, U-87MG ATCC
Give measured CC50 for each item. Keep answers brief.

Observe how each entry below is paired with its result.
C[C@H]1CN(S(=O)(=O)c2c[nH]c3ncccc23)CCN1C(=O)c1ccccc1    > 40 µM
CC1CN(C(=O)c2ccccc2)CCN1S(=O)(=O)c1c[nH]c2c(-n3cc(CN(C)C)nn3)nccc12 (racemic)    > 40 µM
CC1CN(C(=O)c2ccccc2)CCN1S(=O)(=O)c1c[nH]c2c(-c3ncon3)nccc12 (racemic)    > 40 µM

Give CC50 for each of the items listed below.
1. C[C@@H]1CN(C(=O)c2ccccc2)CCN1S(=O)(=O)c1c[nH]c2c(-n3nccn3)ccc(F)c12
2. CC1CN(C(=O)c2ccccc2)CCN1S(=O)(=O)c1c[nH]c2c(Cl)nccc12 (racemic)
3. COc1ccnc2[nH]cc(C(=O)C(=O)N3CCN(C(=O)c4ccccc4)C[C@H]3C)c12
4. CC1CN(C(=O)c2cccs2)CCN1S(=O)(=O)c1c[nH]c2ncccc12 (racemic)
5. C[C@@H]1CN(C(=O)c2ccccc2)CCN1S(=O)(=O)c1c[nH]c2c(-n3cc(CO)nn3)nccc12

Result:
["> 40 µM", "> 40 µM", "> 40 µM", "> 40 µM", "> 40 µM"]

---

Give measured pIC50 for each item. Keep answers brief.
Test system: Human immunodeficiency virus
assay name: Antiviral activity against HIV 589.000049 by viral replication assay
Assay type: functional, organism-based
test settings: Human immunodeficiency virus 1
Answers are plain numbers, as −log10 of the molar value.

CC1CN(C(=O)c2ccccc2)CCN1S(=O)(=O)c1c[nH]c2c(-n3ccnn3)nccc12 (racemic)    7.34

Query: Any idea what its pIC50 is? The compound is COc1ccnc2[nH]cc(C(=O)C(=O)N3CCN(C(=O)c4ccccc4)C[C@H]3C)c12
Result: 8.22
